Value source: patent US7880007B2

molecular target: M2 muscarinic receptor (Homo sapiens); construct: expressed in transfected cells; host or cells: CHO (M2-CHO); test: Functional mobilization of intracellular calcium (FLIPR), M2-CHO cells; assay type: cell-based; settings: 100% efficacy = maximum response obtained with the Carbachol control
Sequence (P08172 whole entry): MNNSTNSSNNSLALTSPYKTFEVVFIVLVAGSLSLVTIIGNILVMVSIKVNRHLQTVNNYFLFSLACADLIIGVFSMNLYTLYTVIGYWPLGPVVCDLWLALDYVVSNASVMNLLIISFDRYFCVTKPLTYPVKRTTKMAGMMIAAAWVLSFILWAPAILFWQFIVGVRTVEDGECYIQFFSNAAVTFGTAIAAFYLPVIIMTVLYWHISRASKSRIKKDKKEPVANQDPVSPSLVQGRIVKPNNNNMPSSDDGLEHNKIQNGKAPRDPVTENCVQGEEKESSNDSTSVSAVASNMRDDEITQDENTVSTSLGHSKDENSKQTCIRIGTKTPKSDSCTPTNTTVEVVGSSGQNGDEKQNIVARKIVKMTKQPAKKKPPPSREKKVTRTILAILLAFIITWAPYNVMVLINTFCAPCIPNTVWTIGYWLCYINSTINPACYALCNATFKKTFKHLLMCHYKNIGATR
reported_metric: Emax

I would be grateful if you could share the reported Emax for CCOC(=O)N1CCC(CN2CCC(OC)(c3cc(Cl)ccc3OC)CC2)CC1 [Compound 108] .
< 25%

Continue with COc1ccc(-c2ccc(C(=O)N(C)C)cc2)cc1C1CCN([C@H]2C[C@H]3CC[C@H]2C3)CC1 [Compound 360]
< 25%

Try this compound next: COc1ccccc1C1(O)CCN(CC2CC3C=CC2C3)CC1 (stereo not shown) [Compound 29]
< 25%

Quick one: COC(=O)c1ccc(-c2ccccc2C2CCN([C@H]3C[C@H]4CC[C@H]3C4)CC2)cc1 [Compound 251]
25 to 100%

Now try COc1ccc(-c2cccc(C)c2)cc1C1CCN([C@H]2C[C@H]3CC[C@H]2C3)CC1 [Compound 277] .
< 25%

Repeat for the following compound: CCOC(=O)N1C2CCC1CC(N1CCC(c3ccccc3OC(F)(F)F)CC1)C2 (stereo not shown) [Compound 355]
< 25%

Also, COc1ccc(-c2ccc(CC#N)cc2)cc1C1CCN(C2CC3CCC(C3)C2)CC1 (stereo not shown) [Compound 173] please.
< 25%

Same question for CCOC(=O)N1[C@@H]2CC[C@@H]1CC(N1CCC(c3cc(NC(C)=O)ccc3OC)CC1)C2 (stereo partly shown) [Compound 338] please.
< 25%

Item: COc1ccc(C#N)cc1C1CCN([C@H]2C[C@H]3CC[C@H]2C3)CC1 [Compound 250]
< 25%

What do we get for COc1ccccc1C1CCN(C2CC3CCC2O3)CC1 (stereo not shown) [Compound 312] ?
< 25%
